Assayed system: HIV-1 pNL4-3 integrase (Human immunodeficiency virus type 1 group M subtype B (isolate NY5) (HIV-1), UniProt P12497)
Assay notes: Determination of enzyme (HIV integrase) inhibitory activity
Reported conditions: calculated from inhibition rate (fluorescence)
Field: IC50. Provide a value for each of the molecules that follow.
Could you write the number and then its unit?

Please review the entries below; each comes with its answer.
{"columns": ["Molecule", "IC50"],
 "data": [
  ["COCCN(C)C(=O)CC1CN(C(C)C)C(=O)c2c(O)c(=O)c(-c3ncc(Cc4ccc(F)cc4F)s3)cn21 (stereo not shown)", "7.7 nM"],
  ["COC[C@@H]1[C@@H](C)N(C(C)C)C(=O)c2c(O)c(=O)c(-c3nnc(Cc4ccc(F)cc4)s3)cn21", "8.8 nM"],
  ["CCNC(=O)[C@]1(C)CN(C(C)C)C(=O)c2c(O)c(=O)c(-c3ncc(Cc4ccc(F)cc4)s3)cn21", "13 nM"],
  ["C[C@H](C1CC1)N1C[C@](C)(C(=O)N(C)C)n2cc(-c3ncc(Cc4ccc(F)cc4)s3)c(=O)c(O)c2C1=O", "15 nM"]
]}

Dear colleague, could you send me IC50 for each of the items below? Thanks.
1. COCCOC[C@H]1CN(CC(C)C)C(=O)c2c(O)c(=O)c(-c3ncc(Cc4ccc(F)cc4F)s3)cn21
2. CCCCN1C[C@H](COCCOC)n2cc(-c3nnc(Cc4ccc(F)cc4)s3)c(=O)c(O)c2C1=O

Outgoing:
11 nM
10 nM

Need IC50 for each of these molecules.
1. CCOC[C@@H]1Cn2cc(-c3ncc(Cc4ccc(F)cc4)s3)c(=O)c(O)c2C(=O)N1CC1CC1
2. CC(C)N1C[C@H](CS(=O)(=O)C(C)(C)C)n2cc(-c3nnc(Cc4ccc(F)cc4)s3)c(=O)c(O)c2C1=O
3. CCOC[C@H]1CN(C(C)C)C(=O)c2c(O)c(=O)c(-c3nnc(Cc4ccc(F)cc4F)s3)cn21

Outgoing:
["6.5 nM", "11 nM", "6.4 nM"]

Quick one: give me IC50 for each item below, same order please.
1. CNC(=O)C1Cn2cc(-c3nnc(Cc4ccc(F)cc4F)s3)c(=O)c(O)c2C(=O)N1C(C)C (stereo not shown)
2. CC(C)N1C(=O)c2c(O)c(=O)c(-c3nnc(Cc4ccc(F)cc4F)s3)cn2C[C@H]1CN(C)C(=O)C(C)(C)C
3. COCCOC[C@H]1Cn2cc(-c3ncc(Cc4ccc(F)cc4F)s3)c(=O)c(O)c2C(=O)N1C(C)C

Outgoing:
["5.7 nM", "6 nM", "12 nM"]

* * *

Assayed system: HIV-1 pNL4-3 integrase (Human immunodeficiency virus type 1 group M subtype B (isolate NY5) (HIV-1))
Assay notes: Determination of enzyme (HIV integrase) inhibitory activity
Reported conditions: calculated from inhibition rate (fluorescence)
One threshold, 10 nM, splits the recorded IC50 values: lower ones are Condition met, equal or higher ones are Condition not met.

Please review the entries below; each comes with its answer.
{"columns": ["Compound", "Answer label"],
 "data": [
  ["COCCOC[C@H]1CN(C(C)C)C(=O)c2c(O)c(=O)c(-c3nnc(Cc4ccc(F)cc4F)s3)cn21 [Example 44]", "Condition met"],
  ["CC(C)N1C(=O)c2c(O)c(=O)c(-c3nnc(Cc4ccc(F)cc4)s3)cn2C[C@@]1(C)C(=O)O", "Condition not met"],
  ["CCN1C(=O)c2c(O)c(=O)c(-c3nnc(CCc4ccc(F)cc4F)s3)cn2C[C@H]1COC", "Condition met"]
]}

Incoming: I wonder whether "CO[C@@H](C)COC[C@H]1CN(C(C)C)C(=O)c2c(O)c(=O)c(-c3nnc(Cc4ccc(F)cc4)s3)cn21" has IC50 below 10 nM. Can you tell?
Outgoing: Condition met

Incoming: Hi there! Is IC50 for CC(C)N1CC(CN2C(=O)c3ccccc3C2=O)n2cc(-c3ncc(Cc4ccc(F)cc4F)s3)c(=O)c(O)c2C1=O (stereo not drawn) below 10 nM, do you know?
Outgoing: Condition not met
